Tested on: UACC-257 melanoma
Assay: NCI tumour cell line growth inhibition, 48 h
Here the recorded TGI is given for each entry.

compound | assayedTarget | TGI
COc1ccc(/C=C/C(=O)c2ccc(Nc3ccnc4cc(Cl)ccc34)cc2)cc1 | UACC-257 melanoma | > 100 µM
Cc1nc(C)c(N2CCN(C#N)CC2)c(=O)[nH]1 | UACC-257 melanoma | > 100 µM
CCc1n[nH]c(=O)n1NC(=O)/C=C\C(=O)O | UACC-257 melanoma | > 100 µM
CC(=O)OC1COC(Nn2c(=O)[nH]c3ccccc3c2=O)C(OC(C)=O)C1OC(C)=O (centres undefined) | UACC-257 melanoma | > 100 µM
COC(=O)C1CCC(=O)N1C(c1ccc2c(c1)OCO2)c1ccc2c(c1)OCO2 (centres undefined) | UACC-257 melanoma | > 100 µM
Nc1ccc(N)c2c1C(=O)c1c(N)ccc(N)c1C2=O | UACC-257 melanoma | > 100 µM
O=C(N/C(=C\c1ccccc1)C1Nc2ccccc2C(=O)O1)c1ccccc1 (centres undefined) | UACC-257 melanoma | 58.4 µM
CN1CCCCC1CCN1c2ccccc2Sc2ccc(S(C)=O)cc21 (centres undefined) | UACC-257 melanoma | > 100 µM
Cc1nn(-c2ccc(Br)cc2)c(C)c1CC(=O)c1cc(O)ccc1O | UACC-257 melanoma | 26.6 µM
CCN(CC)CC(O)C1CCC(c2ccccc2)CC1 (centres undefined) | UACC-257 melanoma | 50.5 µM
O=c1[nH]c(=O)n(C2CC(O)C(CO)O2)cc1C#Cc1cc(F)cc(F)c1 (centres undefined) | UACC-257 melanoma | > 100 µM
COc1ccc(CNc2nc(NCc3ccc(OC)cc3)c3n[nH]c(C(C)C)c3n2)cc1 | UACC-257 melanoma | 30.8 µM
N/N=C(\C(=O)Nc1ccc([N+](=O)[O-])cc1)C(C1=Nc2cc([N+](=O)[O-])ccc2NC1)[N+](=O)[O-] (centres undefined) | UACC-257 melanoma | > 100 µM
CC(C)Oc1ccc(C(=O)N[C@H](CNC(=O)CN(C)C)Cc2ccc(-c3cn4cccc([C@H](C)O)c4n3)cc2)cc1Cl | UACC-257 melanoma | 11.3 µM
CC1CCC23COC(=O)C2C(O)CCC3C1(C)CC(O)c1ccoc1 (centres undefined) | UACC-257 melanoma | > 100 µM
Cc1nc2cc(N)c(Cl)cc2[nH]1 | UACC-257 melanoma | > 100 µM
CCOP(C)(=O)C(Nc1ccc(F)cc1)c1ccc(F)cc1 (centres undefined) | UACC-257 melanoma | > 100 µM
Cc1cc(-c2ccccc2)cc2[n+]1CC=C2 | UACC-257 melanoma | > 100 µM
O=C1c2cccnc2C(=O)c2c1c(C(=O)OCCN1CCOCC1)c1ccccn21 | UACC-257 melanoma | 0.592 µM

----------
Test system: NCI-H226 lung
Assay: NCI tumour cell line growth inhibition, 48 h

molecule | assayedTarget | TGI
O=C(N/C(=C\c1ccccc1)C1Nc2ccccc2C(=O)O1)c1ccccc1 (stereo not drawn) | NCI-H226 lung | > 100 µM
CN1CCCCC1CCN1c2ccccc2Sc2ccc(S(C)=O)cc21 (stereo not drawn) | NCI-H226 lung | > 100 µM
COc1ccc(/C=C/C(=O)c2ccc(Nc3ccnc4cc(Cl)ccc34)cc2)cc1 | NCI-H226 lung | > 100 µM

----------
Tested on: EKVX NSCLC
Test: NCI tumour cell line growth inhibition, 48 h
The reader will find reported GI50 values listed item by item below.
metric: GI50

smilesRecord | metric | experimentalValue
COc1ccc(Nc2ncccc2C(=O)NCc2cn(Cc3cccc(Oc4ccccc4)c3)nn2)cc1 | GI50 | 4160 nM
CC(=O)Nc1sc2c(c1-c1nc3ccccc3s1)CNC2 | GI50 | 2590 nM
COc1cc(OC)cc(-c2cncn2-c2ccc(-c3nc4cc(OC)c(OC)c(OC)c4s3)cc2)c1 | GI50 | 1870 nM
NC[C@@](O)(c1ccc(Cl)cc1)c1ccc(-c2cn[nH]c2)cc1 | GI50 | 556 nM
CCCN1CCN(c2ccc3nc(-c4ccc5nc(-c6ccc(OCC)c(OCC)c6)[nH]c5c4)[nH]c3c2)CC1 | GI50 | 1400 nM
Cc1nn(-c2ccc(Br)cc2)c(C)c1CC(=O)c1cc(O)ccc1O | GI50 | 21300 nM

----------
Test system: HCT-116 colon
Experiment: NCI tumour cell line growth inhibition, 48 h
metric: TGI

compound | experimentalValue
Cc1ccc(C)c(NC(=O)C(Cc2c[nH]c3ccccc23)NC(=O)OCc2ccccc2)c1 (centres undefined) | 98.6 µM
CC1=C(c2cc(C(=O)Nc3nccs3)nc(NC#N)n2)Sc2ccccc2N1 | > 100 µM
CC(O[Si](C)(C)C)C1C=CC(C)n2c(=O)n(-c3ccccc3)c(=O)n21 (centres undefined) | > 100 µM
CC[C@@]1(O)C(=O)OCc2c1cc1n(c2=O)Cc2c-1nc1ccccc1c2/C=N\NC(=O)C(C)N (some centres undefined) | 23.6 µM
O=C(/C(=C/c1cccs1)c1ccccc1)c1ccccc1 | > 100 µM
CN(C)CCC1(C2=CCCC2)CC/C(=C\c2ccccc2)C1=O (centres undefined) | 35.4 µM
CCOP(C)(=O)C(Nc1ccc(F)cc1)c1ccc(F)cc1 (centres undefined) | > 100 µM
NC(N)=Nc1nc2ccccc2[nH]1 | > 150 µg/mL
O=C(CN1CCN(c2ccc(Cl)cc2)CC1)N1CCN(c2nnc(-c3ccccc3)c(-c3ccccc3)n2)CC1 | > 100 µM
c1ccc(C2N3CCCCC3[C@@H]3c4[nH]c5ccccc5c4CCN23)cc1 (some centres undefined) | > 100 µM
COC(=O)C(Cc1ccccc1)C(=O)C(CC(=O)OC(C)(C)C)NC(=O)OC(C)(C)C (centres undefined) | 87.9 µg/mL
O=C(CCl)Nc1ccc2c(c1)C(=O)c1ccc(NC(=O)CCl)cc1C2=O | 0.768 µM
Cc1nn(-c2ccc(Br)cc2)c(C)c1CC(=O)c1cc(O)ccc1O | > 50 µM
CCOP(=O)(OCC)/C(C#N)=C/c1c(C)[nH]c2ccccc12 | > 100 µM
CC(C)(C)NC1C2CCC(C)(C1O)C2(C)C (centres undefined) | > 100 µM
Nc1ccc(N)c2c1C(=O)c1c(N)ccc(N)c1C2=O | > 100 µM
CCCCCCCCCC(CCCC(O)CC(=O)O)OC1OC(COC2OC(C)C(O)C(O)C2O)C(O)C(O)C1OC1OC(CO)C(O)C(O)C1OC1OC(C)C(O)C(O)C1O (centres undefined) | > 40 µM
CC(C)Oc1ccc(C(=O)N[C@H](CNC(=O)CN(C)C)Cc2ccc(-c3cn4cccc([C@H](C)O)c4n3)cc2)cc1Cl | 14.2 µM
CC(=O)OCc1cn(S(=O)(=O)c2ccc(C)cc2)cn1 | > 100 µM
ClC[Si]12OCCN(CCO1)CCO2 | > 100 µM
CSc1nc2c(c(=O)[nH]1)C(c1ccc(Cl)cc1)C1=C(N2)/C(=C/c2ccc(Cl)cc2)CNC1 (centres undefined) | 3.55 µM
COc1cc(OC)cc(-c2cncn2-c2ccc(-c3nc4cc(OC)c(OC)c(OC)c4s3)cc2)c1 | > 100 µM
COC(Cc1ccccc1)NC(C)=O (centres undefined) | > 100 µM
CNC1C(OC2C(OC3C(O)C(O)C(O)C(O)C3O)OC(C)C2(O)CO)OC(CO)C(O)C1O (centres undefined) (tested in a mixture with another compound) | > 100 µM
CC1=NN(C(=O)Cc2ccccc2)C(=O)/C1=C\c1ccco1 | > 100 µM
CC(=O)OC1COC(Nn2c(=O)[nH]c3ccccc3c2=O)C(OC(C)=O)C1OC(C)=O (centres undefined) | > 100 µM
COc1ccc(Nc2ncccc2C(=O)NCc2cn(Cc3cccc(Oc4ccccc4)c3)nn2)cc1 | > 100 µM
CC(=O)O[C@H]1[C@@H](N2CCN(C)CC2)C[C@H]2[C@@H]3CC=C4C[C@@H](N5CCCC5)CC[C@]4(C)[C@H]3CC[C@@]21C | > 100 µM
O=C(N/C(=C\c1ccccc1)C1Nc2ccccc2C(=O)O1)c1ccccc1 (centres undefined) | 36.8 µM

----------
// values below are reported TGI
Tested on: U251 CNS
Assay: NCI tumour cell line growth inhibition, 48 h
metric: TGI

compound | assayedTarget | experimentalValue
COC(=O)[C@@H]1C[C@]2(CC=C(C)C)c3ccccc3N(S(=O)(=O)c3ccccc3)[C@@H]2N1C(=O)OC | U251 CNS | 41.8 µM
COc1cc(/C=C(\C#N)c2ccccn2)cc(Br)c1O | U251 CNS | > 100 µM
O=CC1(C2(C=O)c3ccccc3-c3ccccc32)c2ccccc2-c2ccccc21 | U251 CNS | 5.6 µM
CCSc1nc2n(c(=S)n1)CCN2C | U251 CNS | 41.2 µM
COC(Cc1ccccc1)NC(C)=O (stereo not drawn) | U251 CNS | > 100 µM
CC1=C2C(O)C(C(C)C(=O)NC(C)C)CCC2(C)C=CC1=O (stereo not drawn) | U251 CNS | > 100 µM
Cc1cc(C#N)c(Nc2c(C)cccc2[N+](=O)[O-])s1 | U251 CNS | > 100 µM
CN1CCCCC1CCN1c2ccccc2Sc2ccc(S(C)=O)cc21 (stereo not drawn) | U251 CNS | > 100 µM
Cc1ccc(C(=O)NC(C)(C)C)cc1N=NN(C)C | U251 CNS | > 100 µM
CN(C)/C=N/S(=O)(=O)c1nn2c(C=O)c(-c3ccc(-c4ccc([N+](=O)[O-])cc4)o3)nc2s1 | U251 CNS | > 30.2 µM
S=C(Nc1ccccc1)N1N=C2c3ccccc3CC[C@H]2[C@@H]1c1ccccc1 | U251 CNS | > 100 µM
c1ccc2c(c1)C(=Nc1ccc(N=C3c4ccccc4-c4ccccc43)cc1)c1ccccc1-2 | U251 CNS | > 100 µM
CCOC1SC(SC)=NN1C(=O)C(OC(C)=O)C(OC(C)=O)C(OC(C)=O)C(OC(C)=O)C(=O)N1N=C(SC)SC1OCC (stereo not drawn) | U251 CNS | > 100 µM
CCCCCCCCCCCCP(=O)(O)OCC(N)C(=O)O (stereo not drawn) | U251 CNS | 24.8 µM
COC(=O)c1ccc(C2SCC(=O)N2NC(=O)C(O)c2ccccc2)cc1 (stereo not drawn) | U251 CNS | > 100 µM
Cc1cc(NCCCCCCNc2cc(C)nc3ccc(Cl)cc23)c2cc(Cl)ccc2n1 | U251 CNS | 30.6 µM
CC/C=C\C/C=C\C[C@H]1C/C=C2/C(=O)C=C[C@H]2C/C=C\CCC(=O)O1 | U251 CNS | 9.71 µM
CC(=O)OCc1cn(S(=O)(=O)c2ccc(C)cc2)cn1 | U251 CNS | > 100 µM
Cc1nn(C)c2c1C(=O)N(C)CC(=O)N2C | U251 CNS | > 100 µM
CCOP(C)(=O)C(Nc1ccc(F)cc1)c1ccc(F)cc1 (stereo not drawn) | U251 CNS | > 100 µM
CC1=C(c2cc(C(=O)Nc3nccs3)nc(NC#N)n2)Sc2ccccc2N1 | U251 CNS | > 100 µM
Cc1ccc(C)c(NC(=O)C(Cc2c[nH]c3ccccc23)NC(=O)OCc2ccccc2)c1 (stereo not drawn) | U251 CNS | 35.1 µM
CC1OC(OC2CC(O)(C(=O)CO)Cc3c(O)c4c(c(O)c32)C(=O)c2ccccc2C4=O)CC(N)C1O (stereo not drawn) | U251 CNS | 0.188 µM
O=C1OC2C(O)C(=O)OC2C1O (stereo not drawn) | U251 CNS | > 100 µM
COc1cc2c3c(n(CCCCl)c(=O)c2cc1OC)-c1ccc(C#N)cc1C3=O | U251 CNS | 2.83 µM
CC[C@]12C=CCN3CCC4(c5cc([C@@]6(C(=O)OC)CC7CN(CCc8c6[nH]c6ccccc86)C[C@@H]6CCC[C@H]76)c(OC)cc5N(C)C4[C@](O)(C(=O)OC)C1OC(C)=O)C32 (stereo partly drawn) | U251 CNS | > 5.19 µM
CSc1ccc2c(cc1=O)[C@@H](NC(=O)c1ccc(F)cc1)CCc1cc(O)c(O)c(O)c1-2 | U251 CNS | > 100 µM
Cc1ccccc1/C=C1\CN(C(=O)OC(C)(C)C)C/C(=C\c2ccccc2C)C1=O | U251 CNS | 3.95 µM
O=C(Nc1ccc(Br)cc1F)c1cc(Br)ccc1O | U251 CNS | 13.3 µM
COc1cc(OC)nc(Nc2c(C#N)c3nc4ccccc4n3c3ccccc23)n1 | U251 CNS | > 100 µM
C=C1C(=O)OC2/C=C(\C)C3OC3/C=C(/C(=O)OC)C(OC(C)=O)C(OC(=O)C(C)(O)C(C)OC(C)=O)C12 (stereo not drawn) | U251 CNS | 10.3 µM
CCOC(=O)C1(Cc2ccccc2)Cc2ccccc2C1=O (stereo not drawn) | U251 CNS | > 100 µM
COc1ccc(Cn2c(Br)c3c(c2-c2cc(OC)c(OC)c(OC)c2)CCc2sc(NC(C)=O)nc2-3)cc1 | U251 CNS | > 100 µM
CC1(C)C2CCC1(CC(=O)O)C(Cl)C2 (stereo not drawn) | U251 CNS | > 100 µM
Cc1ccc(C2=C(c3ccccc3)C(O)(c3ccc(C)cc3)C(c3ccccc3)=C2c2ccc(C)cc2)cc1 | U251 CNS | > 100 µM
CCN(CC)CCOc1ccc(C(=C2CCCCC2)c2ccc(OCCN(CC)CC)cc2)cc1 | U251 CNS | 3.1 µM
CCNCCCCNCC | U251 CNS | > 3750 µM
CCN(CC)c1nc(N(C)C)c2cc(OC)ccc2n1 | U251 CNS | > 100 µM
